- protocolSummary: Pharmacokinetics in mice dosed IV, SC and PO
- Assay type: in vivo, mouse
- conditionContext: mouse, in vivo; PO, mice; read-out: PO Cmax
Where no end group is shown, it is not given here.
propertyName: Cmax (ng/mL)

substance: RKDVY [TP-5, Arg-Lys-Asp-Val-Tyr, reference compound]
observedValue: 1370

---

- protocolSummary: Pharmacokinetics in mice dosed IV, SC and PO
- Format: in vivo, mouse
- conditionContext: mouse, in vivo; IV, mice; read-out: IV t½, mice
Where a SMILES comes first, the peptide text is derived from it. [ ]: non-standard residue; d: D form.

compound: CC(C)[C@@H](NC(=O)[C@H](N)Cc1ccc(O)cc1)C(=O)N[C@H](CC(=O)O)C(=O)N[C@H](CCCCN)C(=O)N[C@H](CCCNC(=N)N)C(=O)O [TVALA™] (H-[dY][dV][dD][dK][dR]-OH)
half-life: 6.22 min

---

- protocolSummary: Pharmacokinetics in mice dosed IV, SC and PO
- Format: in vivo, mouse
- conditionContext: mouse, in vivo; SC, mice; read-out: SC % F, mice
Where no end group is shown, it is not given here.
propertyName: bioavailability (%)

substance: RKDVY [TP-5, Arg-Lys-Asp-Val-Tyr, reference compound]
endpointUnit: %
observedValue: 39

---

- protocolSummary: Pharmacokinetics in mice dosed IV, SC and PO
- Format: in vivo, mouse
- conditionContext: mouse, in vivo; SC, mice; read-out: SC Cmax
Where no end group is shown, it is not given here.
propertyName: Cmax (ng/mL)

substance: RKDVY [TP-5, Arg-Lys-Asp-Val-Tyr, reference compound]
propertyName: Cmax
endpointUnit: ng/mL
observedValue: 133

---

- protocolSummary: Pharmacokinetics in mice dosed IV, SC and PO
- Format: in vivo, mouse
- conditionContext: mouse, in vivo; PO, mice; read-out: PO % F, mice
Where a SMILES comes first, the peptide text is derived from it. [ ]: non-standard residue; d: D form.

compound: CC(C)[C@@H](NC(=O)[C@H](N)Cc1ccc(O)cc1)C(=O)N[C@H](CC(=O)O)C(=O)N[C@H](CCCCN)C(=O)N[C@H](CCCNC(=N)N)C(=O)O [TVALA™] (H-[dY][dV][dD][dK][dR]-OH)
endpointUnit: %
bioavailability: 30

---

- protocolSummary: Mouse (liver) microsomal stability
- Assay type: in vitro ADME
- conditionContext: mouse, liver microsomes, mouse liver microsomes; read-out: stability in mouse liver microsomes, half-life
Where no end group is shown, it is not given here.

substance: RKDVY [TP-5, Arg-Lys-Asp-Val-Tyr, reference compound]
endpointUnit: min
half-life: 23.1

---

- protocolSummary: Mouse plasma stability
- Assay type: in vitro ADME
- conditionContext: read-out: Mouse Plasma Stability t½
Where no end group is shown, it is not given here.
propertyName: half-life (min)

substance: RKDVY [TP-5, Arg-Lys-Asp-Val-Tyr, reference compound]
propertyName: half-life
observedValue: 23.1

---

- protocolSummary: Pharmacokinetics in mice dosed IV, SC and PO
- Type: in vivo, mouse
- conditionContext: mouse, in vivo; SC, mice; read-out: SC t½, mice
Where no end group is shown, it is not given here.
propertyName: half-life (min)

substance: RKDVY [TP-5, Arg-Lys-Asp-Val-Tyr, reference compound]
propertyName: half-life
observedValue: 8.92

---

- protocolSummary: Pharmacokinetics in rat (IV, SC, PO)
- conditionContext: in vivo, SC, read-out: % F (SC)
Where a SMILES comes first, the peptide text is derived from it. [ ]: non-standard residue; d: D form.

compound: CC(C)[C@@H](NC(=O)[C@H](N)Cc1ccc(O)cc1)C(=O)N[C@H](CC(=O)O)C(=O)N[C@H](CCCCN)C(=O)N[C@H](CCCNC(=N)N)C(=O)O [TVALA™] (H-[dY][dV][dD][dK][dR]-OH)
bioavailability [%]: 79.2

---

- protocolSummary: Pharmacokinetics in mice dosed IV, SC and PO
- Type: in vivo, mouse
- conditionContext: mouse, in vivo; SC, mice; read-out: SC AUCinf
Where a SMILES comes first, the peptide text is derived from it. [ ]: non-standard residue; d: D form.
propertyName: AUC(0-inf) (ng·h/mL)

compound: CC(C)[C@@H](NC(=O)[C@H](N)Cc1ccc(O)cc1)C(=O)N[C@H](CC(=O)O)C(=O)N[C@H](CCCCN)C(=O)N[C@H](CCCNC(=N)N)C(=O)O [TVALA™] (H-[dY][dV][dD][dK][dR]-OH)
propertyName: AUC(0-inf)
observedValue: 355

---

- protocolSummary: Pharmacokinetics in rat (IV, SC, PO)
- conditionContext: in vivo, PO, read-out: % F (PO)
Where a SMILES comes first, the peptide text is derived from it. [ ]: non-standard residue; d: D form.
propertyName: bioavailability

compound: CC(C)[C@@H](NC(=O)[C@H](N)Cc1ccc(O)cc1)C(=O)N[C@H](CC(=O)O)C(=O)N[C@H](CCCCN)C(=O)N[C@H](CCCNC(=N)N)C(=O)O [TVALA™] (H-[dY][dV][dD][dK][dR]-OH)
propertyName: bioavailability
observedValue: 6.7%

---

- protocolSummary: Pharmacokinetics in mice dosed IV, SC and PO
- Assay type: in vivo, mouse
- conditionContext: mouse, in vivo; PO, mice; read-out: PO Cmax
Where a SMILES comes first, the peptide text is derived from it. [ ]: non-standard residue; d: D form.

molecule: CC(C)[C@@H](NC(=O)[C@H](N)Cc1ccc(O)cc1)C(=O)N[C@H](CC(=O)O)C(=O)N[C@H](CCCCN)C(=O)N[C@H](CCCNC(=N)N)C(=O)O [TVALA™] (H-[dY][dV][dD][dK][dR]-OH)
Cmax: 5290 ng/mL

---

- protocolSummary: Mouse (liver) microsomal stability
- Format: in vitro ADME
- conditionContext: mouse, liver microsomes, mouse microsomes; read-out: Mouse Microsomal Stability t½
Where no end group is shown, it is not given here.

substance: RKDVY [TP-5, Arg-Lys-Asp-Val-Tyr, reference compound]
half-life: > 1 h

---

- protocolSummary: Pharmacokinetics in mice dosed IV, SC and PO
- Type: in vivo, mouse
- conditionContext: mouse, in vivo; IV, mice; read-out: IV t½, mice
Where no end group is shown, it is not given here.

substance: RKDVY [TP-5, Arg-Lys-Asp-Val-Tyr, reference compound]
half-life, min: 5.58

---

- protocolSummary: Dog microsomal stability
- Format: in vitro ADME
- conditionContext: dog microsomes
Where a SMILES comes first, the peptide text is derived from it. [ ]: non-standard residue; d: D form.

compound: CC(C)[C@@H](NC(=O)[C@H](N)Cc1ccc(O)cc1)C(=O)N[C@H](CC(=O)O)C(=O)N[C@H](CCCCN)C(=O)N[C@H](CCCNC(=N)N)C(=O)O [TVALA™] (H-[dY][dV][dD][dK][dR]-OH)
half-life: > 1 h

---

- protocolSummary: Rat microsomal stability
- Format: in vitro ADME
- conditionContext: rat microsomes
Where a SMILES comes first, the peptide text is derived from it. [ ]: non-standard residue; d: D form.

compound: CC(C)[C@@H](NC(=O)[C@H](N)Cc1ccc(O)cc1)C(=O)N[C@H](CC(=O)O)C(=O)N[C@H](CCCCN)C(=O)N[C@H](CCCNC(=N)N)C(=O)O [TVALA™] (H-[dY][dV][dD][dK][dR]-OH)
half-life: > 1 h

---

- protocolSummary: Pharmacokinetics in mice dosed IV, SC and PO
- Format: in vivo, mouse
- conditionContext: mouse, in vivo; SC, mice; read-out: SC t½, mice
Where a SMILES comes first, the peptide text is derived from it. [ ]: non-standard residue; d: D form.
propertyName: half-life (min)

molecule: CC(C)[C@@H](NC(=O)[C@H](N)Cc1ccc(O)cc1)C(=O)N[C@H](CC(=O)O)C(=O)N[C@H](CCCCN)C(=O)N[C@H](CCCNC(=N)N)C(=O)O [TVALA™] (H-[dY][dV][dD][dK][dR]-OH)
propertyName: half-life
observedValue: 11.9

---

- protocolSummary: Mouse (liver) microsomal stability
- Type: in vitro ADME
- conditionContext: mouse, liver microsomes, mouse microsomes; read-out: Mouse Microsomal Stability t½
Where a SMILES comes first, the peptide text is derived from it. [ ]: non-standard residue; d: D form.
propertyName: half-life

compound: CC(C)[C@@H](NC(=O)[C@H](N)Cc1ccc(O)cc1)C(=O)N[C@H](CC(=O)O)C(=O)N[C@H](CCCCN)C(=O)N[C@H](CCCNC(=N)N)C(=O)O [TVALA™] (H-[dY][dV][dD][dK][dR]-OH)
propertyName: half-life
observedValue: > 1 h
